# Ki annotations
Molecular target: GHSR1a receptor (Homo sapiens)
Construct: expressed in transfected cells; host or cells: HEK293 (membranes)
Sequence (Q92847 whole entry): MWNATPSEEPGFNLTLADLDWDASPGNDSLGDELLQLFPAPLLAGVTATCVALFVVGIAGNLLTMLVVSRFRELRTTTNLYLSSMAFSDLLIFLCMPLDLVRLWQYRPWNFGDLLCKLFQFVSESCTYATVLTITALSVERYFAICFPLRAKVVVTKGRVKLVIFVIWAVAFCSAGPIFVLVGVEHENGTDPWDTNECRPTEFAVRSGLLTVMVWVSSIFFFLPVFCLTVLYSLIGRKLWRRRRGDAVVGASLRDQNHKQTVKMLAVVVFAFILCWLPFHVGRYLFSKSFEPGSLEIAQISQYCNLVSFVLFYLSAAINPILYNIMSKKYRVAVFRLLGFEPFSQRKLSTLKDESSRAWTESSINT
Test: 125I-Ghrelin binding assay
Conditions: displacement of 125I-ghrelin (0.053 nM), membranes of HEK293 cells transfected with GHSR1a; Cheng-Prussoff; '—' not defined; read-out: Binding pKi (converted)

{"molecule": "CC(=O)c1cn(CCCN2CCC(CCC(C)C)CC2)c2ccccc12", "Ki": "3980 nM"}
{"molecule": "CCc1cccc2c(C(C)=O)cn(CCCN3C4CCC3CC(CCc3ccccc3)C4)c12 (stereo not drawn)", "Ki": "126 nM"}
{"molecule": "O=C(c1cn(CCCN2C3CCC2CC(Oc2ccccc2Cl)C3)c2ncccc12)C(F)(F)F (stereo not drawn)", "Ki": "251 nM"}
{"molecule": "CC(=O)c1cn(CCCN2CCC(Oc3cccc(Cl)c3)CC2)c2c(Cl)cccc12", "Ki": "100 nM"}
{"molecule": "CCc1cccc2c(C(C)=O)cn(CCCN3C4CCC3CC(CCc3ccc(Cl)cc3)C4)c12 (stereo not drawn)", "Ki": "100 nM"}
{"molecule": "CC(=O)c1c(C)n(CCCN2C3CCC2CC(CCc2ccccc2)C3)c2c(Br)cccc12 (stereo not drawn)", "Ki": "200 nM"}
{"molecule": "COc1cccc2c(C(C)=O)cn(CCCN3CCN(c4ncc(C(F)(F)F)cc4Cl)CC3)c12", "Ki": "398 nM"}
{"molecule": "CCCOC1CCN(CCCn2cc(C(C)=O)c3cccc(OC)c32)CC1 [drawing 713]", "Ki": "1260 nM"}
{"molecule": "COc1cccc2c(C(C)=O)cn(CCCN3CCN(c4cccc(Cl)c4Cl)CC3)c12", "Ki": "398 nM"}
